Test system: Fer (mouse)
Test: phosphorylation enrichment, bacterial display (enrichment ratio); higher = better substrate or ligand; peptides without Tyr show the background;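 further: 11-residue human phosphosite peptides and single-mutation variants displayed on the E. coli surface, counted by deep sequencing, each peptide's frequency after selection divided by its frequency in the unselected input library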;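 further: frequency after pTyr selection over input frequency; kinase dosed for 20-30% of maximal phosphorylation in three min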
Decision: phosphorylation enrichment compared against 0.4; not below it gives label 1, below it gives label 0.

primary_sequence="CEHFSYYGMKA [SLC15A2_Y60_R57H]" label_value="label 1"
primary_sequence="IGEVVYQRAAM [GRIN2A_Y502_V506A]" label_value="label 1"
primary_sequence="QRALLYEDALY [UNC13D_Y56]" label_value="label 1"
primary_sequence="KILGRYFETSS [PAX2_Y72_G76S_YF]" label_value="label 1"
primary_sequence="ALTDNYMYVVI [HAGH_Y61_L64V]" label_value="label 1"
primary_sequence="RRNEEYCLLAS [ITK_Y198_D202A]" label_value="label 1"
primary_sequence="EEQKKYYNAMK [SCN5A_Y1494]" label_value="label 0"
primary_sequence="QTLTDYDIRFY [CSNK2A1_Y131]" label_value="label 1"
primary_sequence="LVMFIYVIFGM [SCN1A_Y1684_A1685V]" label_value="label 0"
primary_sequence="NQSVRYDSSLK [ABCC8_Y1353_L1349Q]" label_value="label 1"
primary_sequence="YEPDAYDDLDQ [ELP5_Y302]" label_value="label 1"
primary_sequence="DKTGEYPVPLI [ACADM_Y73]" label_value="label 1"

###

Molecular target: Jak2 (UniProt O60674)
Sequence (O60674 whole entry, looked up): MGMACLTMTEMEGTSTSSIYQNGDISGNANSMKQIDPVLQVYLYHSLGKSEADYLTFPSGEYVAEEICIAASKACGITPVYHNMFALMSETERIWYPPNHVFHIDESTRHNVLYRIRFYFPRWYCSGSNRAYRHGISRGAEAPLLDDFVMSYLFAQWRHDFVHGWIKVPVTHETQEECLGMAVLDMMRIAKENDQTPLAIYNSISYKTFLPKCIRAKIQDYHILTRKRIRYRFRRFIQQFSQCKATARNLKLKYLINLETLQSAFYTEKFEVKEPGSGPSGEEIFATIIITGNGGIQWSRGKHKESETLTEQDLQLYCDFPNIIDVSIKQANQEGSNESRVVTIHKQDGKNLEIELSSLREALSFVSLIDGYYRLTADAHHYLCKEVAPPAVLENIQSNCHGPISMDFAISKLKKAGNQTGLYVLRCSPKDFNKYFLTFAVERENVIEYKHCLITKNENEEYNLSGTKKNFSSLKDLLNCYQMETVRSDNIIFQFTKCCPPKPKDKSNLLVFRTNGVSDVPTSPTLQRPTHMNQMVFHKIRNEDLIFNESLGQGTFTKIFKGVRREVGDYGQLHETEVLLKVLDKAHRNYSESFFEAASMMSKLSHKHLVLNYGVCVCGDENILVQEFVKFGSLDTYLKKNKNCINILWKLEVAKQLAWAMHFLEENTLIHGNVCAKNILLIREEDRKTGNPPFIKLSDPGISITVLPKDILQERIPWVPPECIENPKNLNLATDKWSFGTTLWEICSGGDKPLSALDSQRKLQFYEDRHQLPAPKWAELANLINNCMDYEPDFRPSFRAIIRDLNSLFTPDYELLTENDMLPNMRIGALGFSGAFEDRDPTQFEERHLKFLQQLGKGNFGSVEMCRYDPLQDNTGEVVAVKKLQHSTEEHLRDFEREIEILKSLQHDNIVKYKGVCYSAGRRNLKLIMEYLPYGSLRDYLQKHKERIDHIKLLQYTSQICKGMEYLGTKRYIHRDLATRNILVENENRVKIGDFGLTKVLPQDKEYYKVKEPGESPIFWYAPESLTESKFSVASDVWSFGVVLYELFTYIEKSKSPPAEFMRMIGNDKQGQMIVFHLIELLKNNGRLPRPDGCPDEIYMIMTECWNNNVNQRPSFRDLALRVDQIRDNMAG
Assay: phosphorylation enrichment, bacterial display (enrichment ratio); higher = better substrate or ligand; peptides without Tyr show the background
Listed here: items and their measured phosphorylation enrichment.
Measured metric: phosphorylation enrichment

primary_sequence="AQAGEYGAEAL [HBA1_Y25_H21Q]" measured_on="Jak2 (UniProt O60674)" result=0.767
primary_sequence="KGEDFYCVTFH [FHL1_Y149_C153Y_YF]" measured_on="Jak2 (UniProt O60674)" result=1.21
primary_sequence="IIEDPYFGNDF [ACP1_Y132_S137F_YF]" measured_on="Jak2 (UniProt O60674)" result=1.3
primary_sequence="KQFWRYFPGNL [SLC25A4_Y112_A114P]" measured_on="Jak2 (UniProt O60674)" result=0.919
primary_sequence="ANSSFHSTRSA [NUMA1_Y1836_Y1836H]" measured_on="Jak2 (UniProt O60674)" result=0.552
primary_sequence="GIYEDYVEGLR [MYL6_Y89_T85I]" measured_on="Jak2 (UniProt O60674)" result=0.946
primary_sequence="HTLMKYTDGDQ [PUS7L_Y94_I92M]" measured_on="Jak2 (UniProt O60674)" result=1.26
primary_sequence="PSQRHYVFFFS [PTEN_Y174_R173H_YF]" measured_on="Jak2 (UniProt O60674)" result=1.92
primary_sequence="HDRREYSRFEK [ITGB7_Y758_Y753H]" measured_on="Jak2 (UniProt O60674)" result=0.647
primary_sequence="IGEVVYQRAAM [GRIN2A_Y502_V506A]" measured_on="Jak2 (UniProt O60674)" result=0.595
primary_sequence="VITTLYIGFLG [KCNQ1_Y267_L262V]" measured_on="Jak2 (UniProt O60674)" result=1.15
primary_sequence="FDAHIYEGCVI [PRKCD_Y64_R67C]" measured_on="Jak2 (UniProt O60674)" result=1.05
primary_sequence="PELIDYGKLWK [ACTN1_Y193_R197W]" measured_on="Jak2 (UniProt O60674)" result=0.761
primary_sequence="VDGSLYETHPQ [HK1_Y417_K418E]" measured_on="Jak2 (UniProt O60674)" result=0.653
primary_sequence="LQLLGYRPVYS [CHST6_Y358]" measured_on="Jak2 (UniProt O60674)" result=0.979
primary_sequence="KYLENYLNRLL [PLD2_Y169]" measured_on="Jak2 (UniProt O60674)" result=0.859
primary_sequence="DTDSSYCIPIA [GAB1_Y373_T377I]" measured_on="Jak2 (UniProt O60674)" result=0.925
primary_sequence="NDQPDYDSVAS [GIT2_Y392]" measured_on="Jak2 (UniProt O60674)" result=1.23
primary_sequence="RGLQVYHRRNA [LRP2_Y2010]" measured_on="Jak2 (UniProt O60674)" result=1.2
primary_sequence="FYLGAYDRFLP [SLC22A5_Y486_V481F]" measured_on="Jak2 (UniProt O60674)" result=1.11
primary_sequence="LVMFIDAIFGM [SCN1A_Y1684_Y1684D]" measured_on="Jak2 (UniProt O60674)" result=1.79
primary_sequence="RIFDYYSARKT [STOX1_Y858_A863T]" measured_on="Jak2 (UniProt O60674)" result=1.18
primary_sequence="VYSTDCYRVGG [NTRK2_Y706_Y706C]" measured_on="Jak2 (UniProt O60674)" result=0.972
primary_sequence="DGTESYHTVSS [PLK1_Y462_L463H]" measured_on="Jak2 (UniProt O60674)" result=0.52
primary_sequence="QDLTDYLMKIL [ACTA2_Y190_R185Q]" measured_on="Jak2 (UniProt O60674)" result=1.34
primary_sequence="IGRHAYGDQFR [IDH1_Y135_YF]" measured_on="Jak2 (UniProt O60674)" result=0.487
primary_sequence="SSVAGYACLAY [MVD_Y131_A128V]" measured_on="Jak2 (UniProt O60674)" result=0.852
primary_sequence="VPANRYDLLRL [FARSB_Y72_C76R]" measured_on="Jak2 (UniProt O60674)" result=0.54

###

Target: EPHB2 (UniProt P29323)
Sequence (P29323 whole entry, looked up): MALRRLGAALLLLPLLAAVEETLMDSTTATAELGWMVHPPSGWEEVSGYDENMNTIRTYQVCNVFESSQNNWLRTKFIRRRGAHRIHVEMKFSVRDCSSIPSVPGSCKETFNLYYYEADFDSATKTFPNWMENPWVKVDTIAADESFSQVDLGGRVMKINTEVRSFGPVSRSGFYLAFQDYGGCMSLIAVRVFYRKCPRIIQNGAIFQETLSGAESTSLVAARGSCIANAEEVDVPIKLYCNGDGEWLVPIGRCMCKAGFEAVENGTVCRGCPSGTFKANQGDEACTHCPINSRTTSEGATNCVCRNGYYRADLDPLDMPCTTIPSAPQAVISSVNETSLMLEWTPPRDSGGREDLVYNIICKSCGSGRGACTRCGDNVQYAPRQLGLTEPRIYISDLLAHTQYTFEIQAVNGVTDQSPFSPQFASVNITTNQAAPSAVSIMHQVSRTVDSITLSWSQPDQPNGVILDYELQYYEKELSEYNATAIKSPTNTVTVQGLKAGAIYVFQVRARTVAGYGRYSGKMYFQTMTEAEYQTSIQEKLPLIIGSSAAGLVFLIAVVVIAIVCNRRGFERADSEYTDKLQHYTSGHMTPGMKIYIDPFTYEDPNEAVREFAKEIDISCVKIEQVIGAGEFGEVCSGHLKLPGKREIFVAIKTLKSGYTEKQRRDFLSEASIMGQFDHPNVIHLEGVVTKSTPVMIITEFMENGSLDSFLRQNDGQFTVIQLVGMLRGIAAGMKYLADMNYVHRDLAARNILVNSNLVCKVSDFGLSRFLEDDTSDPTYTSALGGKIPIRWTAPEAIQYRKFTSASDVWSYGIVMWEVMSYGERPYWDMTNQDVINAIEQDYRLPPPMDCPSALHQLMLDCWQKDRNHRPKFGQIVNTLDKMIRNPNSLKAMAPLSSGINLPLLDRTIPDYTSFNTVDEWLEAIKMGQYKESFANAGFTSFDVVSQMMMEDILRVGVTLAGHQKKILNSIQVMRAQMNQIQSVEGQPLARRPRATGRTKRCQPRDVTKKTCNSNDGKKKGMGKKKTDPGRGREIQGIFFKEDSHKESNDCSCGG
Test: phosphorylation enrichment, bacterial display (enrichment ratio); higher = better substrate or ligand; peptides without Tyr show the background
Decision: phosphorylation enrichment compared against 0.5; not below it gives Yes, below it gives No.

primary_sequence="QTEAEYRFIFM [PTPN11_Y511_Q510E_YF]" measured_on="EPHB2 (UniProt P29323)" label_value=Yes
primary_sequence="CTTNHYNYMCN [TP53_Y234_I232N]" measured_on="EPHB2 (UniProt P29323)" label_value=No
primary_sequence="DLDPNYVVSSR [CKM_Y125_L127V]" measured_on="EPHB2 (UniProt P29323)" label_value=Yes
primary_sequence="ENRKYYKDLKE [PURA_Y156_M157K]" measured_on="EPHB2 (UniProt P29323)" label_value=No
primary_sequence="KDHPDYKFQAR [SOX10_Y171_P175A_YF]" measured_on="EPHB2 (UniProt P29323)" label_value=No
primary_sequence="SHSMKYFDTAV [HLA-C_Y31_R30K]" measured_on="EPHB2 (UniProt P29323)" label_value=No
primary_sequence="RRVEPYGENFN [APOA4_Y310]" measured_on="EPHB2 (UniProt P29323)" label_value=No
primary_sequence="LQLLGYRPVYS [CHST6_Y358]" measured_on="EPHB2 (UniProt P29323)" label_value=Yes
primary_sequence="REIIAYQPYGK [PRKCG_Y529_P524R]" measured_on="EPHB2 (UniProt P29323)" label_value=Yes
primary_sequence="MSRDIYSTDFF [NTRK1_Y676_YF]" measured_on="EPHB2 (UniProt P29323)" label_value=Yes
primary_sequence="ASNNPYFRDQA [RPGRIP1_Y846]" measured_on="EPHB2 (UniProt P29323)" label_value=No
primary_sequence="SAGSSYSISVI [PAX5_Y179_G183V]" measured_on="EPHB2 (UniProt P29323)" label_value=Yes
primary_sequence="SSQAHYRLSAF [ADAMTS9_Y100]" measured_on="EPHB2 (UniProt P29323)" label_value=No
primary_sequence="RRIHSYRGQLW [VHL_Y112_H115Q]" measured_on="EPHB2 (UniProt P29323)" label_value=No
primary_sequence="TVEDHYFEGGI [TKT_Y563_YF]" measured_on="EPHB2 (UniProt P29323)" label_value=Yes
primary_sequence="REGAKYVSHDA [ASS1_Y113_G117D]" measured_on="EPHB2 (UniProt P29323)" label_value=No
primary_sequence="RKGGSYTQAAS [HLA-A_Y344]" measured_on="EPHB2 (UniProt P29323)" label_value=No
primary_sequence="NLVSEYQQFQD [TUBB3_Y422_D417N_YF]" measured_on="EPHB2 (UniProt P29323)" label_value=Yes
primary_sequence="EKKKYYDAKIE [CASP5_Y104_T106A]" measured_on="EPHB2 (UniProt P29323)" label_value=No
primary_sequence="PNQRRYVFFFS [PTEN_Y174_S170N_YF]" measured_on="EPHB2 (UniProt P29323)" label_value=Yes
primary_sequence="PKAWNYELPAT [PROM1_Y34]" measured_on="EPHB2 (UniProt P29323)" label_value=Yes
primary_sequence="DHYNQYEQQKM [CHD7_Y75]" measured_on="EPHB2 (UniProt P29323)" label_value=No
primary_sequence="IMWDSYTTNKV [GNB3_Y85_V81M]" measured_on="EPHB2 (UniProt P29323)" label_value=No
primary_sequence="KAIMTYVFSFY [ACTN4_Y260_S262F]" measured_on="EPHB2 (UniProt P29323)" label_value=Yes
primary_sequence="CKRQFYLFKGK [RSPO4_Y112_YF]" measured_on="EPHB2 (UniProt P29323)" label_value=Yes
primary_sequence="LSSLAYSGKDA [FXN_Y205]" measured_on="EPHB2 (UniProt P29323)" label_value=Yes
primary_sequence="FEREQYADRAR [RBM4_Y355_YF]" measured_on="EPHB2 (UniProt P29323)" label_value=No
primary_sequence="VYSTDCYRVGG [NTRK2_Y706_Y706C]" measured_on="EPHB2 (UniProt P29323)" label_value=Yes
primary_sequence="MPLDQYSPSFP [FGFR1_Y776]" measured_on="EPHB2 (UniProt P29323)" label_value=Yes
primary_sequence="DKTGEYPVPLI [ACADM_Y73]" measured_on="EPHB2 (UniProt P29323)" label_value=Yes
primary_sequence="PGLSSYGVPAS [FLNB_Y1530]" measured_on="EPHB2 (UniProt P29323)" label_value=No
primary_sequence="SGIYQYNIAKF [FOXL2_Y83_I84N]" measured_on="EPHB2 (UniProt P29323)" label_value=Yes
primary_sequence="YRASYYRRGDR [LTK_Y677]" measured_on="EPHB2 (UniProt P29323)" label_value=Yes
primary_sequence="ATATDYHTTSH [SLC4A1_Y46]" measured_on="EPHB2 (UniProt P29323)" label_value=No
primary_sequence="PGDGEYFTLQI [TP53_Y327_L323G]" measured_on="EPHB2 (UniProt P29323)" label_value=Yes
primary_sequence="FYLGAYDRFLP [SLC22A5_Y486_V481F]" measured_on="EPHB2 (UniProt P29323)" label_value=Yes
primary_sequence="DRLASYLDKLR [KRT12_Y139_V143L]" measured_on="EPHB2 (UniProt P29323)" label_value=Yes
primary_sequence="IMNLLYHVVGW [GBA_Y412_T408M]" measured_on="EPHB2 (UniProt P29323)" label_value=Yes
primary_sequence="ELAVNYQEQAS [SLC9A9_Y591_I589V]" measured_on="EPHB2 (UniProt P29323)" label_value=Yes
primary_sequence="FAGRDYSLDEF [MYOF_Y1705_G1701A_YF]" measured_on="EPHB2 (UniProt P29323)" label_value=Yes
primary_sequence="GTVRDYPDFSP [ANXA3_Y15]" measured_on="EPHB2 (UniProt P29323)" label_value=Yes
primary_sequence="VMIFAYLLHRG [PTEN_Y138_C136Y_YF]" measured_on="EPHB2 (UniProt P29323)" label_value=No
primary_sequence="FGLQAYTEVKT [ALDH2_Y502_YF]" measured_on="EPHB2 (UniProt P29323)" label_value=Yes
primary_sequence="CTNIHYNYMCN [TP53_Y234_T231N]" measured_on="EPHB2 (UniProt P29323)" label_value=Yes
primary_sequence="RLAKTYETTLE [ALB_Y377]" measured_on="EPHB2 (UniProt P29323)" label_value=Yes
primary_sequence="CEQELYSQLVF [WAS_Y102_W97C_YF]" measured_on="EPHB2 (UniProt P29323)" label_value=Yes
primary_sequence="CSSGGYEPRGR [FUS_Y239_R234C]" measured_on="EPHB2 (UniProt P29323)" label_value=No
primary_sequence="ALTRSYIREKV [CYP2C8_Y243]" measured_on="EPHB2 (UniProt P29323)" label_value=No
primary_sequence="FDNPVCQKTTE [LDLR_Y828_Y828C]" measured_on="EPHB2 (UniProt P29323)" label_value=Yes
primary_sequence="RRIHCYRGHLW [VHL_Y112_S111C]" measured_on="EPHB2 (UniProt P29323)" label_value=Yes
primary_sequence="NTGNYYDLYGG [PTPN11_Y63_D61N]" measured_on="EPHB2 (UniProt P29323)" label_value=Yes
primary_sequence="GIYKDYYRYNF [PLA2G2D_Y85_S80G]" measured_on="EPHB2 (UniProt P29323)" label_value=Yes
primary_sequence="KFVKMYDNHQL [MYO9A_Y203_YF]" measured_on="EPHB2 (UniProt P29323)" label_value=No
primary_sequence="VEGIGYDFIPT [CBS_Y308]" measured_on="EPHB2 (UniProt P29323)" label_value=Yes
